Data origin: patent US20230270713A1

assay: Pharmacokinetic/toxicokinetic profile of RTX after intravesical instillation in dogs; format: in vivo, dog; conditions: male, dog, plasma, other: intravesical instillation, 250 mcg, male dogs 1003, 1005 individual, 250 mcg intravesical, 60 h; read-out: Plasma concentration of RTX
measured attribute: concentration at 60 h (ng/mL)

INSERT INTO measurements (compound_smiles, measured) VALUES
  ('C=C(C)[C@]12C[C@@H](C)[C@@]34O[C@](Cc5ccccc5)(O[C@@H]1[C@@H]3C=C(COC(=O)Cc1ccc(O)c(OC)c1)C[C@]1(O)C(=O)C(C)=C[C@@H]41)O2', 0);

====

test: Plasma concentration of RTX (HPLC) after intravesical instillation in healthy cats; assay type: in vivo, cat; conditions: cat, plasma, other: intravesical instillation, 50 mcg, 50 mcg total intravesical, 0.5 h, individual cats
measured attribute: concentration at 0.5 h (pg/mL)

INSERT INTO assay_data (compound_smiles, measured_attribute, measured) VALUES
  ('C=C(C)[C@]12C[C@@H](C)[C@@]34O[C@](Cc5ccccc5)(O[C@@H]1[C@@H]3C=C(COC(=O)Cc1ccc(O)c(OC)c1)C[C@]1(O)C(=O)C(C)=C[C@@H]41)O2', 'concentration at 0.5 h', 8.77);

====

assay: Pharmacokinetic/toxicokinetic profile of RTX after intravesical instillation in dogs; assay type: in vivo, dog; conditions: female, dog, plasma, other: intravesical instillation, 250 mcg, female dogs, 250 mcg intravesical, 2 h; read-out: Plasma concentration of RTX, Mean
measured attribute: concentration at 2 h (ng/mL)

INSERT INTO assay_data (compound_smiles, measured) VALUES
  ('C=C(C)[C@]12C[C@@H](C)[C@@]34O[C@](Cc5ccccc5)(O[C@@H]1[C@@H]3C=C(COC(=O)Cc1ccc(O)c(OC)c1)C[C@]1(O)C(=O)C(C)=C[C@@H]41)O2', 0.0557);

====

experiment: Pharmacokinetic/toxicokinetic profile of RTX after intravesical instillation in dogs; format: in vivo, dog; details: male, dog, plasma, other: intravesical instillation, 250 mcg, male dogs, 250 mcg intravesical, 1 h; read-out: Plasma concentration of RTX, Mean
measured attribute: concentration at 1 h (ng/mL)

INSERT INTO results (compound_smiles, measured) VALUES
  ('C=C(C)[C@]12C[C@@H](C)[C@@]34O[C@](Cc5ccccc5)(O[C@@H]1[C@@H]3C=C(COC(=O)Cc1ccc(O)c(OC)c1)C[C@]1(O)C(=O)C(C)=C[C@@H]41)O2', 0.208);

====

assay: Pharmacokinetic/toxicokinetic profile of RTX after intravesical instillation in dogs; assay type: in vivo, dog; details: female, dog, plasma, other: intravesical instillation, 250 mcg, female dogs 1004, 1006 individual, 250 mcg intravesical, 4 h; read-out: Plasma concentration of RTX
measured attribute: concentration at 4 h

INSERT INTO measurements (compound_smiles, measured_attribute, measured) VALUES
  ('C=C(C)[C@]12C[C@@H](C)[C@@]34O[C@](Cc5ccccc5)(O[C@@H]1[C@@H]3C=C(COC(=O)Cc1ccc(O)c(OC)c1)C[C@]1(O)C(=O)C(C)=C[C@@H]41)O2', 'concentration at 4 h', '0 ng/mL');

====

assay: Pharmacokinetic/toxicokinetic profile of RTX after intravesical instillation in dogs; type: in vivo, dog; conditions: male, dog, plasma, other: intravesical instillation, 250 mcg, male dogs 1003, 1005 individual, 250 mcg intravesical, 6 h; read-out: Plasma concentration of RTX
measured attribute: concentration at 6 h (ng/mL)

INSERT INTO assay_data (compound_smiles, measured) VALUES
  ('C=C(C)[C@]12C[C@@H](C)[C@@]34O[C@](Cc5ccccc5)(O[C@@H]1[C@@H]3C=C(COC(=O)Cc1ccc(O)c(OC)c1)C[C@]1(O)C(=O)C(C)=C[C@@H]41)O2', 0);

====

Test: Plasma concentration of RTX (HPLC) after intravesical instillation in healthy cats
Assay type: in vivo, cat
Details: cat, plasma, other: intravesical instillation, 25 mcg, 25 mcg total intravesical, 1 h, individual cats
Protocol: To examine the effect of intravesical instillation of RTX on the bladder, 6 healthy cats, between the 2-5 years of age, were treated with either 5 (low dose), 25 (mid dose) or 50 mcg (high dose) of RTX (volume was 25 ml; concentrations were 0.2, 1, and 2 mcg/ml). These doses are considered equivalent to administration of 20, 100, or 200 mcg in a human with a volume of 100 ml. A seventh cat received saline only and served as the control. […]
measured attribute: concentration at 1 h (ng/mL)

INSERT INTO measurements (compound_smiles, measured_attribute, measured) VALUES
  ('C=C(C)[C@]12C[C@@H](C)[C@@]34O[C@](Cc5ccccc5)(O[C@@H]1[C@@H]3C=C(COC(=O)Cc1ccc(O)c(OC)c1)C[C@]1(O)C(=O)C(C)=C[C@@H]41)O2', 'concentration at 1 h', 0.0135);

====

assay: Pharmacokinetic/toxicokinetic profile of RTX after intravesical instillation in dogs; type: in vivo, dog; conditions: female, dog, plasma, other: intravesical instillation, 250 mcg, female dogs 1004, 1006 individual, 250 mcg intravesical, 2 h; read-out: Plasma concentration of RTX
measured attribute: concentration at 2 h (ng/mL)

INSERT INTO assay_data (molecule, measured) VALUES
  ('C=C(C)[C@]12C[C@@H](C)[C@@]34O[C@](Cc5ccccc5)(O[C@@H]1[C@@H]3C=C(COC(=O)Cc1ccc(O)c(OC)c1)C[C@]1(O)C(=O)C(C)=C[C@@H]41)O2 [RTX, resiniferatoxin]', 0.0602);

====

assay: Pharmacokinetic/toxicokinetic profile of RTX after intravesical instillation in dogs; assay type: in vivo, dog; conditions: female, dog, plasma, other: intravesical instillation, 250 ug, female dogs, 250 mcg intravesical; read-out: AUC(0-T), Mean
measured attribute: AUC(0-t) (ng·h/mL)

INSERT INTO measurements (compound_smiles, measured) VALUES
  ('C=C(C)[C@]12C[C@@H](C)[C@@]34O[C@](Cc5ccccc5)(O[C@@H]1[C@@H]3C=C(COC(=O)Cc1ccc(O)c(OC)c1)C[C@]1(O)C(=O)C(C)=C[C@@H]41)O2', 0.294);

====

test: Pharmacokinetic/toxicokinetic profile of RTX after intravesical instillation in dogs; assay type: in vivo, dog; conditions: male, dog, plasma, other: intravesical instillation, 250 mcg, male dogs 1003, 1005 individual, 250 mcg intravesical, 2 h; read-out: Plasma concentration of RTX
measured attribute: concentration at 2 h (ng/mL)

INSERT INTO results (compound_smiles, measured_attribute, measured) VALUES
  ('C=C(C)[C@]12C[C@@H](C)[C@@]34O[C@](Cc5ccccc5)(O[C@@H]1[C@@H]3C=C(COC(=O)Cc1ccc(O)c(OC)c1)C[C@]1(O)C(=O)C(C)=C[C@@H]41)O2', 'concentration at 2 h', 0.0597);

====

assay: Pharmacokinetic/toxicokinetic profile of RTX after intravesical instillation in dogs; type: in vivo, dog; details: male, dog, plasma, other: intravesical instillation, 250 mcg, male dogs 1003, 1005 individual, 250 mcg intravesical, 4 h; read-out: Plasma concentration of RTX
measured attribute: concentration at 4 h (ng/mL)

INSERT INTO assay_data (compound_smiles, value_unit, measured) VALUES
  ('C=C(C)[C@]12C[C@@H](C)[C@@]34O[C@](Cc5ccccc5)(O[C@@H]1[C@@H]3C=C(COC(=O)Cc1ccc(O)c(OC)c1)C[C@]1(O)C(=O)C(C)=C[C@@H]41)O2', 'ng/mL', 0);

====

assay: Pharmacokinetic/toxicokinetic profile of RTX after intravesical instillation in dogs; type: in vivo, dog; conditions: female, dog, plasma, other: intravesical instillation, 250 ug, female dogs, 250 mcg intravesical; read-out: Tmax, Mean
measured attribute: Tmax (min)

INSERT INTO assay_data (compound_smiles, value_unit, measured) VALUES
  ('C=C(C)[C@]12C[C@@H](C)[C@@]34O[C@](Cc5ccccc5)(O[C@@H]1[C@@H]3C=C(COC(=O)Cc1ccc(O)c(OC)c1)C[C@]1(O)C(=O)C(C)=C[C@@H]41)O2', 'min', 45);

====

test: Pharmacokinetic/toxicokinetic profile of RTX after intravesical instillation in dogs; type: in vivo, dog; conditions: female, dog, plasma, other: intravesical instillation, 250 mcg, female dogs 1004, 1006 individual, 250 mcg intravesical, 36 h; read-out: Plasma concentration of RTX
measured attribute: concentration at 36 h

INSERT INTO assay_data (molecule, measured_attribute, measured) VALUES
  ('C=C(C)[C@]12C[C@@H](C)[C@@]34O[C@](Cc5ccccc5)(O[C@@H]1[C@@H]3C=C(COC(=O)Cc1ccc(O)c(OC)c1)C[C@]1(O)C(=O)C(C)=C[C@@H]41)O2 [RTX, resiniferatoxin]', 'concentration at 36 h', '0 ng/mL');

====

experiment: Pharmacokinetic/toxicokinetic profile of RTX after intravesical instillation in dogs; assay type: in vivo, dog; settings: female, dog, plasma, 250 ug, female dogs, 250 mcg intravesical; read-out: Tmax, Mean
measured attribute: Tmax

INSERT INTO assay_data (compound, measured_attribute, measured) VALUES
  ('C=C(C)[C@]12C[C@@H](C)[C@@]34O[C@](Cc5ccccc5)(O[C@@H]1[C@@H]3C=C(COC(=O)Cc1ccc(O)c(OC)c1)C[C@]1(O)C(=O)C(C)=C[C@@H]41)O2 [RTX, resiniferatoxin]', 'Tmax', '45 min');
